Target System: myeloperoxidase (MPO) (Homo sapiens (Human), UniProt P05164)
Sequence (P05164 49-745): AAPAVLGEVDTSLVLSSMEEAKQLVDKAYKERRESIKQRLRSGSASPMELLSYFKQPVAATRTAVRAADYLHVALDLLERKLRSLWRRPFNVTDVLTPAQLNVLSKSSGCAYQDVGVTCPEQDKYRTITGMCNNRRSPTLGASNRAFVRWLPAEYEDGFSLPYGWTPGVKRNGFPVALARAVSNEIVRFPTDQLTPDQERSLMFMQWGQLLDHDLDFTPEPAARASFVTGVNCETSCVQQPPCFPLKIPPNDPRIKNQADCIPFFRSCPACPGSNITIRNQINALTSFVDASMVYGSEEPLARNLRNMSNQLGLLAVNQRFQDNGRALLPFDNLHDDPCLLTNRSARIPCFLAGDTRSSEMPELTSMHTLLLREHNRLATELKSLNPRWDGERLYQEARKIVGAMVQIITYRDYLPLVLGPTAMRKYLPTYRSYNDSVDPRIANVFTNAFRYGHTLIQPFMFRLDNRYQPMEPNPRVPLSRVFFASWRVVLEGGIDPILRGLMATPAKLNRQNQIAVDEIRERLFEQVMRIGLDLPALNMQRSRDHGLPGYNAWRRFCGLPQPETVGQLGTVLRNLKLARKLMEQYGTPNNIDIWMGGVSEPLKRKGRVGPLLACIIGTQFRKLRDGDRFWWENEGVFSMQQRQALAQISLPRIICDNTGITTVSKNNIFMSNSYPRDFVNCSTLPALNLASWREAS
Assay Explanation: MPO peroxidation assay (Amplex Red assay)
Assay type: biochemical
Measurement Parameters: MPO peroxidation, potency range class; read-out: Amplex Red Assay IC50 value
Catalogue of IC50 values

Solved entries:
stdin: Return reported IC50; argument: Cc1nc(-c2ccc(Cc3cc(N)nc4[nH]nnc34)cc2)no1 [Example 32]
stdout: 101 to 999 nM

stdin: Could you do the same for COc1cccc(Cc2cc(N)nc3[nH]nnc23)n1 [Example 51] , please?
stdout: 101 to 999 nM

stdin: And for COC(=O)c1cc(Cc2cc(N)nc3[nH]nnc23)ccc1F [Example 50] ?
stdout: 101 to 999 nM

stdin: Okay, and CC(C)(C)c1ccc(Cc2cc(N)nc3[nH]nnc23)cc1 [Example 35] ?
stdout: 101 to 999 nM

stdin: Repeat for the following compound: Nc1cc(Cc2ccc3c(c2)CCC3)c2nn[nH]c2n1 [Example 22]
stdout: 101 to 999 nM

***
stdin: // lookup IC50 for Nc1cc(Cc2cccc3c2ccn3Cc2cccc(OCc3ccccc3)c2)c2nn[nH]c2n1 [Example 63]
stdout: 1 to 100 nM

stdin: Moving on to the next compound: Nc1cc(Cc2ccc(F)c(F)c2)c2nn[nH]c2n1 [Example 34]
stdout: 101 to 999 nM

stdin: Another: Nc1cc(Cc2cccc(F)c2F)c2nn[nH]c2n1 [Example 44]
stdout: 1 to 100 nM

stdin: Now consider Nc1cc(Cc2ccc(F)cc2)c2nn[nH]c2n1 [Example 28] and answer again.
stdout: 101 to 999 nM

stdin: Moving on to Nc1cc(Cc2cccnc2)c2nn[nH]c2n1 [Example 56]
stdout: 101 to 999 nM

###

Target System: myeloperoxidase (MPO) (Homo sapiens (Human), UniProt P05164)
Assay Explanation: MPO chlorination assay (APF assay)
Format: biochemical
Measurement Kind: IC50

stdin: Look up IC50 with myeloperoxidase (MPO) (Homo sapiens (Human), UniProt P05164) for this compound: CS(=O)(=O)c1cccc(Cc2cc(N)nc3[nH]nnc23)c1 [Example 13]
stdout: 1 to 10 µM

###

Target System: myeloperoxidase (MPO) (Homo sapiens (Human))
Assay Explanation: MPO peroxidation assay (Amplex Red assay)
Assay type: biochemical
Measurement Parameters: MPO peroxidation, potency range class; read-out: Amplex Red Assay IC50 value
Measurement Kind: IC50

stdin: Entry Nc1cc(Cc2cccc(Oc3ccc(F)cc3)c2)c2nn[nH]c2n1 [Example 27] has what IC50?
stdout: 101 to 999 nM

stdin: Repeat with Nc1cc(Cc2cccc(F)c2)c2nn[nH]c2n1 [Example 24]
stdout: 1 to 100 nM

stdin: Entry Nc1cc(Cc2cccc(Cc3ccccc3)c2)c2nn[nH]c2n1 [Example 16] please
stdout: 1 to 100 nM

stdin: Check Nc1cc(Cc2cccc3c2ccn3Cc2cccc(-c3ccccc3)c2)c2nn[nH]c2n1 [Example 61] too.
stdout: 1 to 100 nM

stdin: Consider next the compound Nc1cc(Cc2cccc3c2ccn3Cc2cccc(F)c2)c2nn[nH]c2n1 [Example 64] in the same way.
stdout: 1 to 100 nM

stdin: Cc1cccc(Cc2cc(N)nc3[nH]nnc23)n1 [Example 54] ?
stdout: 101 to 999 nM

stdin: What do we get for Nc1cc(Cc2cc(F)ccc2F)c2nn[nH]c2n1 [Example 42] ?
stdout: 1 to 100 nM

stdin: # iterate: N#Cc1ccc(F)c(Cc2cc(N)nc3[nH]nnc23)c1 [Example 8]
stdout: 1 to 100 nM

stdin: Another compound to look at: Nc1cc(Cc2c(F)ccc(Cl)c2F)c2nn[nH]c2n1 [Example 18]
stdout: 1 to 100 nM

stdin: Next record, please: Nc1cc(Cc2cccc(Cl)c2F)c2nn[nH]c2n1 [Example 45]
stdout: 1 to 100 nM

These entries and their values trace back to patent US10214527B2.
